Ref: ChEMBL document CHEMBL4229461

study_system: Amyloid-beta precursor protein (Homo sapiens, UniProt P05067)
Sequence (P05067 whole entry): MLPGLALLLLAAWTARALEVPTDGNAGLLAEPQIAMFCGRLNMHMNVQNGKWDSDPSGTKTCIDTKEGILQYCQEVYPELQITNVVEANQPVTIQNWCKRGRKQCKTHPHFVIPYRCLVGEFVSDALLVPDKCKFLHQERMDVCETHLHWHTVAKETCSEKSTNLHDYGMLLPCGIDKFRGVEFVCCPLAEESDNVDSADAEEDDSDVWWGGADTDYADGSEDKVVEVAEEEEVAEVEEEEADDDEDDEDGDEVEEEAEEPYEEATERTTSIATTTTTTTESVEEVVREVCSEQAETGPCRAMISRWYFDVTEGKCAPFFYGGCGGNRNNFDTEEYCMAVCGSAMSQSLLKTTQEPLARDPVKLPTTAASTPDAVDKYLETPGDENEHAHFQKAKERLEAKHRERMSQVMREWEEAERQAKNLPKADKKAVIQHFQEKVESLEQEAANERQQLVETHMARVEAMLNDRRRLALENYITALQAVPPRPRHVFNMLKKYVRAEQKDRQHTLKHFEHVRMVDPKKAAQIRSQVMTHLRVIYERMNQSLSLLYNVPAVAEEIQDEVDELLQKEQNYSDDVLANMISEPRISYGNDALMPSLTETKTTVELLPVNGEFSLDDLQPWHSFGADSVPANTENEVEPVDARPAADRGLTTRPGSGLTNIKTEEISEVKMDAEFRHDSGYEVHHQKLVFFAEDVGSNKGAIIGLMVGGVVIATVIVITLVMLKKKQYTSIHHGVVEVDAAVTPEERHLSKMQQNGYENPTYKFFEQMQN
measurement_description: Disruption of recombinant human amyloid beta (1 to 40) fibrils after 24 hrs by ThT fluorescence assay
condition_set: read-out: DC50
metric: DC50 (µM)

Would you please look over these solved cases?
{"compound": "COc1cc(/C=C/c2cc(/C=C/c3ccc(O)c(OC)c3)[nH]n2)ccc1O [CURCUMIN PYRAZOLE]", "unit_annotation": "µM", "DC50": 1.47}
{"compound": "COc1cc(/C=C/C(=O)/C(CCCN2C(=O)c3ccccc3C2=O)=C(O)/C=C/c2ccc(O)c(OC)c2)ccc1O", "unit_annotation": "µM", "DC50": 1.16}
{"compound": "COc1cc(/C=C/c2cc(/C=C/c3ccc(OC(C)=O)c(OC)c3)[nH]n2)ccc1OC(C)=O", "unit_annotation": "µM", "DC50": 0.31}

(I) COc1cc(/C=C/C(=O)/C=C(O)/C=C/c2ccc(OC(C)=O)c(OC)c2)ccc1OC(C)=O
(II) COc1cc(/C=C/c2cc(C)[nH]n2)ccc1O
Given the listed items, does I or II have the lesser reported DC50? # reply format: chosen label I
